test system: Staphylococcus aureus (ATCC 29213); experiment: MIC determination, microbroth dilution; format: cell-based; details: ATCC29213; Staphylococcus aureus (ATCC 29213); read-out: MIC S.a.
Where a name gives a salt, the structure may show the parent alone.
PROPERTY_NAME: MIC

[[record]]
compound = "CN[C@@H]1[C@H](O)[C@H](NC)[C@H]2O[C@]3(O)[C@H](O[C@@H]2[C@H]1O)O[C@H](C)C[C@]3(O)CNCCc1ccccc1 [compound 27, Trihydrochloride]"
recorded_measurement = "> 200 µg/mL"

[[record]]
compound = "CN[C@@H]1[C@H](O)[C@H](NC)C2O[C@]3(O)C(OC2[C@H]1O)O[C@H](C)C[C@@]3(O)CNCc1cccc(O)c1 (stereo partly drawn)"
recorded_measurement = "25 to 50 µg/mL"

[[record]]
compound = "CN[C@@H]1[C@H](O)[C@H](NC)[C@H]2O[C@]3(O)[C@H](O[C@@H]2[C@H]1O)O[C@H](C)C[C@@]3(O)CNCc1cccc(OC(F)(F)F)c1 [compound 25, Trihydrochloride]"
recorded_measurement = "25 to 50 µg/mL"

